Target: UniProt P35968
Assay: Inhibition of recombinant human N-terminal GST-tagged VEGFR2 (789 to end residues) expressed in baculovirus infected Sf9 insect cells using Poly (4:1 Glu, Tyr) as substrate incubated for 1 hr by ADP-Glo luminescent assay
Hi there, I'd appreciate the recorded pIC50 for every entry that follows.
Numbers only, as −log10 of the molar value.

structure_string=Cc1ncsc1-c1ccc(CNC(=O)[C@@H]2C[C@@H](O)CN2C(=O)[C@@H](NC(=O)CCCCCCCCCCC(=O)n2nc(N)c3c(-c4cccc(NC(=O)Nc5cccc(C(C)C)c5)c4)cccc32)C(C)(C)C)cc1 experimental_readout=pIC50 reported_value=6.68
structure_string=Cc1ccc(F)c(NC(=O)Nc2ccc(-c3cccc4c3c(N)nn4C(=O)CCCCCCCCCCC(=O)N[C@H](C(=O)N3C[C@H](O)C[C@H]3C(=O)NCc3ccc(-c4scnc4C)cc3)C(C)(C)C)cc2)c1 experimental_readout=pIC50 reported_value=6.68

From here, focus on the item given below.
[in] Lab note: need pIC50 with UniProt P35968 for entry Cc1ccc(F)c(NC(=O)Nc2ccc(-c3cccc4c3c(N)nn4C(=O)CCCCCCCCCCCCCCC(=O)N[C@H](C(=O)N3C[C@H](O)C[C@H]3C(=O)NCc3ccc(-c4scnc4C)cc3)C(C)(C)C)cc2)c1 , please look it up.
[out] 7.09

---

Target: Vascular endothelial growth factor receptor 2 (Homo sapiens, UniProt P35968)
Sequence (P35968 whole entry): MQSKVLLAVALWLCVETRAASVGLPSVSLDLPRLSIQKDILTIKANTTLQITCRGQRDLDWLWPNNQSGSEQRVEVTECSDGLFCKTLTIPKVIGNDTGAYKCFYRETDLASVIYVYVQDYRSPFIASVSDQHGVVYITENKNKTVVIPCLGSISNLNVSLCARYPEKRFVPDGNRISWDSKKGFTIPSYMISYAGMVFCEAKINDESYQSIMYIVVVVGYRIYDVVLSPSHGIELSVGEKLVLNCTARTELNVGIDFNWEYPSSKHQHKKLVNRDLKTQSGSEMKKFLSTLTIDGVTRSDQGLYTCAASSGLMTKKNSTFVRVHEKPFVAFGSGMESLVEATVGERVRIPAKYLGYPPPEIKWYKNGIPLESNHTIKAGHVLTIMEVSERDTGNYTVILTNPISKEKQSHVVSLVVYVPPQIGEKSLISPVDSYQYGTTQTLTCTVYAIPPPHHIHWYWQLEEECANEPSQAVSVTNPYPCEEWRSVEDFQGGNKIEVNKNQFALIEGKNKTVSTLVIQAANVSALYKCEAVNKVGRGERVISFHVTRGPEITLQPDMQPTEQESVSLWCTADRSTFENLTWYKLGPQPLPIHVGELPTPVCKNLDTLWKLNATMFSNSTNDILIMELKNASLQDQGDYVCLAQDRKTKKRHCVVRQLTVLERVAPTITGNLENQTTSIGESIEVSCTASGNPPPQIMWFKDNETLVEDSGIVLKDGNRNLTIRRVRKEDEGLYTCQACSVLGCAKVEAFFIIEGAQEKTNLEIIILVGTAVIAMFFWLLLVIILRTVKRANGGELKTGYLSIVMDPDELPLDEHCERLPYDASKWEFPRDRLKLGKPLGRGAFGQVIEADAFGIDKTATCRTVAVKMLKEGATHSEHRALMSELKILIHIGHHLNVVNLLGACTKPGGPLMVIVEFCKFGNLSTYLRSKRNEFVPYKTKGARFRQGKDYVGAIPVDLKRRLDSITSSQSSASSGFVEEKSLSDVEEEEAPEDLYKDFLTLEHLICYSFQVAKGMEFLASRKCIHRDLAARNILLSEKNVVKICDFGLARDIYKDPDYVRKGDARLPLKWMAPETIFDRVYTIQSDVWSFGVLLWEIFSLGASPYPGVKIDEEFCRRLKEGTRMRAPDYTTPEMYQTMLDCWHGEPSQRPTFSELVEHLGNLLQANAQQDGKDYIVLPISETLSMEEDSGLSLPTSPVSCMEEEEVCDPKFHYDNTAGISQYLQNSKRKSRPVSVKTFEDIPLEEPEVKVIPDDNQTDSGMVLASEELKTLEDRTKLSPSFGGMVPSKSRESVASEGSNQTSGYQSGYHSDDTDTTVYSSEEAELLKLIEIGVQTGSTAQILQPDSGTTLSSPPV
Assay: Inhibition of recombinant human N-terminal GST-tagged VEGFR2 (789 to end residues) expressed in baculovirus infected Sf9 insect cells using Poly (4:1 Glu, Tyr) as substrate incubated for 1 hr by ADP-Glo luminescent assay
Hi there, I'd appreciate the recorded IC50 for every entry that follows.

Example compounds with recorded IC50:
structure_string=Cc1ncsc1-c1ccc(CNC(=O)[C@@H]2C[C@@H](O)CN2C(=O)[C@@H](NC(=O)CCCCCC(=O)n2nc(N)c3c(-c4cccc(NC(=O)Nc5cccc(C(C)C)c5)c4)cccc32)C(C)(C)C)cc1 reported_value="> 1000 nM"
structure_string=Cc1ncsc1-c1ccc(CNC(=O)[C@@H]2C[C@@H](O)CN2C(=O)[C@@H](NC(=O)CCCCCCCCCCCCCCC(=O)n2nc(N)c3c(-c4cccc(NC(=O)Nc5cccc(C(C)C)c5)c4)cccc32)C(C)(C)C)cc1 reported_value="> 1000 nM"

From here, focus on the item given below.
[in] Look up IC50: Cc1ccc(F)c(NC(=O)Nc2ccc(-c3cccc4c3c(N)nn4C(=O)CCCCCC(=O)N[C@H](C(=O)N3C[C@H](O)C[C@H]3C(=O)NCc3ccc(-c4scnc4C)cc3)C(C)(C)C)cc2)c1
[out] > 1000 nM
